Taken from PubChem BioAssay AID2060888.

Test system: 695427-040-R-J1-PDC complex spheroid viability;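 also: viability read after seven days of drug exposure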
Test: Anticancer human tumor 695427-040-R-J1-PDC patient-derived colon adenocarcinoma cell line growth inhibition [RAS]
Conditions: curve of first compound; second compound 0.01 µM
Reported log10 IC50 is given for each of the following compounds.
property_label: log10 IC50 (log10 of the value in µM)

{"columns": ["compound", "log10 IC50"],
 "data": [
  ["CCc1c2c(nc3ccc(O)cc13)-c1cc3c(c(=O)n1C2)COC(=O)[C@]3(O)CC + C=CC(=O)N1CCN(c2nc(OCC3CCCN3C)nc3c(F)c(-c4nc(N)cc(C)c4C(F)(F)F)c(Cl)cc23)C(C)C1", -0.91],
  ["O=C(c1ccc(F)c(F)c1Nc1ccc(I)cc1F)N1CC(O)([C@@H]2CCCCN2)C1 + C=CC(=O)N1CCN(c2nc(OCC3CCCN3C)nc3c(F)c(-c4nc(N)cc(C)c4C(F)(F)F)c(Cl)cc23)C(C)C1", -1.40],
  ["CC(Nc1ccc2c(c1)OCCn1cc(N3C(=O)OCC3C(F)F)nc1-2)C(N)=O (stereo not given) + C=CC(=O)N1CCN(c2nc(OCC3CCCN3C)nc3c(F)c(-c4nc(N)cc(C)c4C(F)(F)F)c(Cl)cc23)C(C)C1", -0.08],
  ["C=CC(=O)Nc1cc(Nc2nccc(-c3cn(C)c4ccccc34)n2)c(OC)cc1N(C)CCN(C)C + C=CC(=O)N1CCN(c2nc(OCC3CCCN3C)nc3c(F)c(-c4nc(N)cc(C)c4C(F)(F)F)c(Cl)cc23)C(C)C1", -0.30],
  ["NC1c2ccccc2OC12CCN(c1cnc3c(N4CCCc5ncccc54)n[nH]c3n1)CC2 (stereo not given) + C=CC(=O)N1CCN(c2nc(OCC3CCCN3C)nc3c(F)c(-c4nc(N)cc(C)c4C(F)(F)F)c(Cl)cc23)C(C)C1", 0.51],
  ["CCC(CC)c1cc(NC2CCC(N)C2)n2nccc2n1 (stereo not given) + C=CC(=O)N1CCN(c2nc(OCC3CCCN3C)nc3c(F)c(-c4nc(N)cc(C)c4C(F)(F)F)c(Cl)cc23)C(C)C1", 0.32]
]}
